Test system: MRSA 15187
Assay: MIC by agar incorporation method, MRSA 15187
Type: cell-based, Methicillin Resistant Staphylococcus aureus
Parameters: unit not given here
Settings: Mueller Hinton agar, 10^4 CFU/spot, 24 hours
Description: 2) MRSA 15187—Methicillin Resistant Staphylococcus aureus
measured endpoint: In Vitro (MIC) MRSA 15187

# example entries with known answers
Incoming: # In Vitro (MIC) MRSA 15187 lookup, item CC(=O)NC[C@H]1CN(c2ccc(N3CCN(C(=O)c4ccc(NC(C)=O)s4)CC3)c(F)c2)C(=O)O1
Outgoing: 4

Incoming: # In Vitro (MIC) MRSA 15187 lookup, item CC(=O)NC[C@H]1CN(c2ccc(N3C(C)CN(C(=O)c4ccco4)CC3C)c(F)c2)C(=O)O1 (stereo partly shown)
Outgoing: 4

Incoming: # In Vitro (MIC) MRSA 15187 lookup, item CC(=O)NC[C@H]1CN(c2ccc(N3CCCN(C(=O)c4ccc([N+](=O)[O-])s4)CC3)c(F)c2)C(=O)O1
Outgoing: 0.5

Incoming: # In Vitro (MIC) MRSA 15187 lookup, item CCN(Cc1ccc([N+](=O)[O-])s1)C1CCN(c2ccc(N3C[C@H](CNC(C)=O)OC3=O)cc2F)CC1
Outgoing: 4

1 = CC(=O)NC[C@H]1CN(c2ccc(N3CCCN(C(=O)c4ccc([N+](=O)[O-])o4)CC3)c(F)c2)C(=O)O1
2 = O=C(CCl)NC[C@H]1CN(c2ccc(N3CCN(Cc4ccc([N+](=O)[O-])o4)CC3)c(F)c2)C(=O)O1
Incoming: Endpoint returns whichever of 1 and 2 has the numerically higher In Vitro (MIC) MRSA 15187. Please identify the chosen entry by its label.
Outgoing: 2
(2: 2, 1: 0.5)

* * *

Test system: MRSA 33
Test: MIC by agar incorporation method, MRSA 33
Assay type: cell-based, Methicillin Resistant Staphylococcus aureus
Design: unit not given here
Conditions: Mueller Hinton agar, 10^4 CFU/spot, 24 hours
measured endpoint: In Vitro (MIC) MRSA 33

# example entries with known answers
Incoming: # In Vitro (MIC) MRSA 33 lookup, item CC(=O)NC[C@H]1CN(c2ccc(N3CCN(Cc4cc(N(C)C)c([N+](=O)[O-])s4)CC3)c(F)c2)C(=O)O1 [Compound No. 19]
Outgoing: 8

Incoming: # In Vitro (MIC) MRSA 33 lookup, item CC(=O)NC[C@H]1CN(c2ccc(N3CCN(Cc4cc([N+](=O)[O-])cn4C)CC3)c(F)c2)C(=O)O1 [Compound No. 11]
Outgoing: 4

Incoming: # In Vitro (MIC) MRSA 33 lookup, item O=C(CCl)NC[C@H]1CN(c2ccc(N3CCN(Cc4ccc([N+](=O)[O-])o4)CC3)c(F)c2)C(=O)O1 [Compound No. 46]
Outgoing: 2

Incoming: # In Vitro (MIC) MRSA 33 lookup, item CC(=O)NC[C@H]1CN(c2ccc(N3CCN(Cc4ccc([N+](=O)[O-])[nH]4)CC3)c(F)c2)C(=O)O1 [Compound No. 13]
Outgoing: 4

Incoming: # In Vitro (MIC) MRSA 33 lookup, item CC(=O)NC[C@H]1CN(c2ccc(N3CCCN(C(=O)c4ccc([N+](=O)[O-])o4)CC3)c(F)c2)C(=O)O1 [Compound No. 55]
Outgoing: 2

I = CC(=O)NC[C@H]1CN(c2ccc(N3CCN(C(=O)c4ccc([N+](=O)[O-])o4)C(C)C3)c(F)c2)C(=O)O1 (stereo partly shown) [Compound No. 69]
II = CC(=O)NC[C@H]1CN(c2ccc(N3CCC(NCc4ccc([N+](=O)[O-])s4)CC3)c(F)c2)C(=O)O1 [Compound No. 84]
Incoming: Endpoint returns whichever of I and II has the numerically higher In Vitro (MIC) MRSA 33. Please identify the chosen entry by its label.
Outgoing: II
(II: 2, I: 1)

P = CC(=O)NC[C@H]1CN(c2ccc(N3CCC(N(C)C(=O)c4ccc([N+](=O)[O-])o4)C(C)C3)c(F)c2)C(=O)O1 (stereo partly shown) [Compound No. 74]
Q = CC(=O)NC[C@H]1CN(c2ccc(N3CCC(CN(C)Cc4ccc([N+](=O)[O-])s4)CC3)c(F)c2)C(=O)O1 [Compound No. 94]
R = CC(=O)NC[C@H]1CN(c2ccc(N3CCN(Cc4cc([N+](=O)[O-])cs4)CC3)c(F)c2)C(=O)O1 [Compound No. 14]
S = CC(=O)NC[C@H]1CN(c2ccc(N3CCN(C(=O)Cc4cccs4)C(C)C3)c(F)c2)C(=O)O1 (stereo partly shown) [Compound No. 68]
Incoming: Arrange these compounds by their In Vitro (MIC) MRSA 33, starting with the largest number. Please list the labels in the order you were asked to rank them.
Outgoing: S, Q, P, R
(S: 4, Q: 2, P: 1, R: 0.25)

* * *

Tested on: MRSA 33
Assay: MIC by agar incorporation method, MRSA 33
Type: cell-based, Methicillin Resistant Staphylococcus aureus
Set-up: unit not given here
Details: Mueller Hinton agar, 10^4 CFU/spot, 24 hours
measured endpoint: In Vitro (MIC) MRSA 33

# example entries with known answers
Incoming: # In Vitro (MIC) MRSA 33 lookup, item CC(=O)NC[C@H]1CN(c2ccc(N3CCN(Cc4oc(C=O)cc4C)CC3)c(F)c2)C(=O)O1
Outgoing: 4

Incoming: # In Vitro (MIC) MRSA 33 lookup, item CC(=O)NC[C@H]1CN(c2ccc(N3CCN(C(=O)c4cc(N(C)C)c([N+](=O)[O-])s4)CC3)c(F)c2)C(=O)O1
Outgoing: 4

Incoming: # In Vitro (MIC) MRSA 33 lookup, item CC(=O)NC[C@H]1CN(c2ccc(N3CCN(C(C)c4ccc([N+](=O)[O-])o4)CC3)c(F)c2)C(=O)O1 (stereo partly shown)
Outgoing: 1

1 = COc1ccc(CN2CCN(c3ccc(N4C[C@H](CNC(C)=O)OC4=O)cc3F)CC2)o1
2 = CC(=O)NC[C@H]1CN(c2ccc(N3CCN(C(=O)c4ccc(-c5ccc(Cl)cc5[N+](=O)[O-])o4)CC3)c(F)c2)C(=O)O1
Incoming: Endpoint returns whichever of 1 and 2 has the numerically higher In Vitro (MIC) MRSA 33. Please identify the chosen entry by its label.
Outgoing: 1

* * *

Tested on: MRSA 15187
Assay: MIC by agar incorporation method, MRSA 15187
Type: cell-based, Methicillin Resistant Staphylococcus aureus
Parameters: unit not given here
Details: Mueller Hinton agar, 10^4 CFU/spot, 24 hours
measured endpoint: In Vitro (MIC) MRSA 15187

Incoming: # In Vitro (MIC) MRSA 15187 lookup, item CC(=O)NC[C@H]1CN(c2ccc(N3CCN(Cc4cc([N+](=O)[O-])cn4C)CC3)c(F)c2)C(=O)O1
Outgoing: 4

A = CC(=O)NC[C@H]1CN(c2ccc(N3CCN(C(=O)c4ccc([N+](=O)[O-])s4)C(C)C3)c(F)c2)C(=O)O1 (stereo partly drawn)
B = CC(=O)NC[C@H]1CN(c2ccc(N3CCN(Cc4coc([N+](=O)[O-])c4)CC3)c(F)c2)C(=O)O1
Incoming: Endpoint returns whichever of A and B has the numerically higher In Vitro (MIC) MRSA 15187. Please identify the chosen entry by its label.
Outgoing: B

* * *

Tested on: MRSA 15187
Assay: MIC by agar incorporation method, MRSA 15187
Assay type: cell-based, Methicillin Resistant Staphylococcus aureus
Parameters: unit not given here
Conditions: Mueller Hinton agar, 10^4 CFU/spot, 24 hours
measured endpoint: In Vitro (MIC) MRSA 15187

P = CC(=O)NC[C@H]1CN(c2ccc(N3C(C)CN(C(=O)Cc4cccs4)CC3C)c(F)c2)C(=O)O1 (some centres unmarked) [Compound No. 66]
Q = CC(=O)NC[C@H]1CN(c2ccc(N3CCN(C(=O)Cc4cccs4)C(C)C3)c(F)c2)C(=O)O1 (some centres unmarked) [Compound No. 68]
R = CCN(C(=O)c1ccc([N+](=O)[O-])s1)C1CCN(c2ccc(N3C[C@H](CNC(C)=O)OC3=O)cc2F)CC1 [Compound No. 79]
S = CC(=O)NC[C@H]1CN(c2ccc(N3CCCN(Cc4ccc([N+](=O)[O-])o4)CC3)c(F)c2)C(=O)O1 [Compound No. 52]
T = CC(=O)NC[C@H]1CN(c2ccc(N3CCCC(=O)C3)c(F)c2)C(=O)O1 [Compound No. 96]
Incoming: Sort the items above on In Vitro (MIC) MRSA 15187, descending. Please list the labels in the order you were asked to rank them.
Outgoing: T, P, Q, S, R
(T: 16, P: 8, Q: 4, S: 2, R: 0.5)

A = CC(Cl)C(=O)NC[C@H]1CN(c2ccc(N3CCN(Cc4cc(Br)c([N+](=O)[O-])s4)CC3)c(F)c2)C(=O)O1 (some centres unmarked) [Compound No. 51]
B = CC(=O)NC[C@H]1CN(c2ccc(N3CCC(CN(C)Cc4ccc([N+](=O)[O-])s4)CC3)c(F)c2)C(=O)O1 [Compound No. 94]
C = CC(=O)NC[C@H]1CN(c2ccc(N3CCN(Cc4cc(Br)c([N+](=O)[O-])o4)CC3)c(F)c2)C(=O)O1 [Compound No. 25]
D = CC(=O)NC[C@H]1CN(c2ccc(N3CCN(Cc4ccc([N+](=O)[O-])o4)CC3C)c(F)c2)C(=O)O1 (some centres unmarked) [Compound No. 58]
Incoming: Number of compounds to sort: 4. Sort criterion: In Vitro (MIC) MRSA 15187, ascending. Please list the labels in the order you were asked to rank them.
Outgoing: C, B, D, A

1 = CC(=O)NC[C@H]1CN(c2ccc(N3CCC(N(C)Cc4ccc([N+](=O)[O-])s4)C3)c(F)c2)C(=O)O1 (some centres unmarked) [Compound No. 90]
2 = CC(=O)NC[C@H]1CN(c2ccc(N3CCN(C(=O)c4ccc(N)s4)CC3)c(F)c2)C(=O)O1 [Compound No. 34]
3 = CC(=O)NC[C@H]1CN(c2ccc(N3CCC(NCc4ccc([N+](=O)[O-])o4)CC3)c(F)c2)C(=O)O1 [Compound No. 86]
Incoming: Number of compounds to sort: 3. Sort criterion: In Vitro (MIC) MRSA 15187, ascending. Please list the labels in the order you were asked to rank them.
Outgoing: 3, 1, 2
(3: 1, 1: 2, 2: 8)
